target.desc: Mouse LRP-8 expressed on HEK293 cells (mouse) (UniProt Q924X6)
procedure.details: cell-based binding on MOUSE LRP8-HEK293, supernatant 1:125
measure: fold over isotype control

binder	measure	reported
anti-LRP-8 BGK.2C8.E6.D3 [r/m IgG2a/K] (antibody, V domains shown) VH: QVTLKESGPGILQPSQTLSLTCTFSGFSLNTYGMGVGWVRQPSGKGLEWLANIWWDDDKFYNPSLKNRLTVSKDTSNNQAFLRITNGDTADTATYFCARILGEDIGGALDAWGQGTSVTVSS VL: DTVLTQSPALAVSPGERVSISCRASEGVNSYMHWYQQNPGQQSKLLIYRTSNLASGVPARFGGSGSGTDFTLTIDPVEADDTATYFCQQSWNDPPTFGGGTKLELK	fold over isotype control	0.43 fold
BGK-7F7 (GENOVAC candidate clone of Table 17) (antibody, V domains shown) VH: QVTLKESGPGILQPSQTLSLTCTFSGFSLSTYGLGVGWIRQPSGKGLEWLANIWWDDAKYYNPSLKNRLTISKDTSNNQAFLKIPNVDTADTARYYCARTTKPYYFDYWGQGVMVTVSS VL: HFVLAQPNSVSTNLGSTVKLSCKRSTANIGSNYVNWYQQHEGRSPTTLIYRDDRRPDGVPDRFSGSIDRSSNSALLTINNVQTEDEADYFCQSYSSGINIFGGGTKLTVL	fold over isotype control	13.1 fold
anti-LRP-8 BGK.5D10.E4 [r/m IgG2a/K] (antibody, V domains shown) VH: QVQLRETGPDLVQPTQTLSLTCTVSGFSLTNYPVQWVRQPPGSGLEWLGIMWPSGAADFNPALKSRLSISRDTSKSQFFLRMDNLQTDDTAIYFCARGRGYSSPYAMDAWGQGTSVTVSS VL: DIQMTQSPASLSASLGETVSIECLASEDIYNNLAWYQQKPGKSPHLLIHFTSNLQDGVPSRFSGSGSGTQYSLKINSLESEDGATYFCLQDSEYPLTFGSGTKLEIK	fold over isotype control	0.16 fold
anti-LRP-8 BGK.6E3.F4 [r/m IgG2a/K] (antibody, V domains shown) VH: EVQLVESGGGLVQPGKSLKLSCAASGFTFSDYNMAWVRQAPKKGLEWVATIMYDGSRTFYRDSVKGRYTFSRDNAKSTLYLQMDSLRSEDTATYYCATGRNWFAYWGQGTLVTVSS VL: DIIMTQSPSSLAVSAGETVTINCKSSQSLLSSGKQKNYLAWYQQKPGQSPKLLIYLASTRESGVPDRFIGSGSGTDFTLTISSMQAEDLAIYYCQQHYDTPLTFGSGTKLEIK	fold over isotype control	0.21 fold
